# targetUnderTest: DPP-4 enzyme (Homo sapiens, UniProt P27487)
# Sequence (P27487 whole entry): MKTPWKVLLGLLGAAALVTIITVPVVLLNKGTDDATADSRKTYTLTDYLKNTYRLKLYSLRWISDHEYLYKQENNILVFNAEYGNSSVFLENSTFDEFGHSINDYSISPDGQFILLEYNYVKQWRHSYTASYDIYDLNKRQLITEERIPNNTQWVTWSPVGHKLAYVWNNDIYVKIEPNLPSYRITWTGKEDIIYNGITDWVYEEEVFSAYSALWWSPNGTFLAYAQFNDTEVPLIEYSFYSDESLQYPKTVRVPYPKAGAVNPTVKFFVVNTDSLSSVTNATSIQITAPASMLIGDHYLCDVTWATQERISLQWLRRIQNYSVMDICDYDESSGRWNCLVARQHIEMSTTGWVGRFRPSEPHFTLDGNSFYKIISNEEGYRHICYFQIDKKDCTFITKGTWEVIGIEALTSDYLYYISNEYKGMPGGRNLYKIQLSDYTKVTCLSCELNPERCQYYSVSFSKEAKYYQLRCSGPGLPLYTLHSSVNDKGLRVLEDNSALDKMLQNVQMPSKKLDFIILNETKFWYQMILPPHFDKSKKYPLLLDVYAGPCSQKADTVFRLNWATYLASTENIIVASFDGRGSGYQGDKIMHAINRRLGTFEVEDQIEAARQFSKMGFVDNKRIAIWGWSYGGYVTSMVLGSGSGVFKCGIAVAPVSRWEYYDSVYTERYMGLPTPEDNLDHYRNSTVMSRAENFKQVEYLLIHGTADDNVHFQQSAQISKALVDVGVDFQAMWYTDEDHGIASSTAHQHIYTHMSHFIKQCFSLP
# procedureText: biochemical
# cond: read-out: DPP-4 IC50; in vitro, 0.01 to 10 µM, mean ± SD
property: pIC50
On this scale, pIC50 is minus log10 of a concentration expressed in M (mol/L).

Note to self: pIC50 recorded for O=c1c(S(=O)(=O)NC(=S)Nc2ccccc2)cnc2[nH]ncn12 [Compound 7a] was 6.82
